tested on: SF-295 CNS; assay: NCI-60 one-dose screen, 48 h; settings: 10 µM unless noted
This is part of a sample that, as a whole, favours compounds with a hit. Of some 83,000 tested, about 20% had one in any assay. Calls of active or inactive are those of the source. Rule for the calls: active = growth percent below 10; inactive = the rest.
Classes used: active, inactive

- molecule: "CCCCCCCCCCCCCCCCC(Br)C(=O)O (stereo unspecified)"
  class: "inactive"
- molecule: "O=C(CNc1ccc(Cl)cc1)Nc1ccc(-c2nc3ccccc3s2)cc1"
  class: "inactive"
- molecule: "Cc1sc2nc(CSc3nnc(-c4ccco4)o3)[nH]c(=O)c2c1C"
  class: "inactive"
- molecule: "O=C(c1ccccc1)C(Cl)C(Cl)c1ccccc1 (stereo unspecified)"
  class: "inactive"
- molecule: "COc1ccc(-n2cnc3c(sc4ncc(Cl)cc43)c2=O)cc1"
  class: "inactive"
- molecule: "COc1ccc(/C=C(\\C#N)c2ccc([N+](=O)[O-])cc2)c2ccccc12"
  class: "inactive"
- molecule: "C#CCC1(c2ccc(F)c(F)c2)NS(=O)(=O)c2ccccc21 (stereo unspecified)"
  class: "inactive"
- molecule: "Nc1c(C(=O)Nc2ccccc2)sc2nc3c(cc12)CCC3"
  class: "inactive"
- molecule: "O=C(CN1CCN(c2cc3c(cc2F)c(=O)c(C(=O)O)cn3C2CC2)CC1)Nc1ccc(C(=O)/C=C/c2ccccc2)cc1"
  class: "inactive"
- molecule: "O=C(/C=C/CN1CCCCC1)Nc1cc2c(Nc3ccc(F)c(Cl)c3F)ncnc2cc1OCCOC(F)F"
  class: "inactive"
- molecule: "COc1cccc(C2CC(=O)Nc3c2c(C)nn3-c2nc3ccccc3[nH]2)c1OC (stereo unspecified)"
  class: "active"
- molecule: "COc1ccc(C(=O)/C=C/c2ccc(/C=C/c3cc(OC)c(OC)c(OC)c3)cc2)cc1"
  class: "inactive"
- molecule: "CC(=O)Nc1ccc(S(=O)(=O)N2C(=O)CCC2C(=O)Nc2ccc(Br)cc2)cc1 (stereo unspecified)"
  class: "inactive"
- molecule: "O=C(N/N=C/c1c(Cl)cccc1Cl)c1ccccc1Nc1ccnc(C(F)(F)F)c1"
  class: "inactive"
- molecule: "CCN(C(=O)c1cc2ncccc2[nH]1)[C@H]1CCC[C@@H](NCc2cccc(F)c2)C1"
  class: "inactive"
- molecule: "COc1ccc(-c2nc3sccn3c2-c2ccnc(NCCNS(=O)(=O)c3ccc(C(F)(F)F)cc3)n2)cc1"
  class: "active"
- molecule: "O=S(=O)(O)CCl"
  class: "inactive"
- molecule: "COc1ccc(/C(=N\\O)c2cc(OC)c(OC)c(OC)c2)c(OC)c1N"
  class: "active"
- molecule: "CC/C=C\\C[C@H]1C/C=C2/C(=O)C(Cl)=C[C@@H]2C/C=C\\CCCC(=O)O1"
  class: "active"
- molecule: "CCOC(=O)c1ccccc1NC(c1ccccc1)c1ccc2cccnc2c1O (stereo unspecified)"
  class: "inactive"
- molecule: "CCN1C(=S)N(CC)C2Nn3c(s/c(=C4\\C(=O)N(C)c5ccccc54)c3=O)=NC21 (stereo unspecified)"
  class: "inactive"
